# Test system: MS2 coat protein
# assayExplanation: apparent KD of MS2 coat protein; designed switch direction (-1 OFF switch, 1 ON switch): -1; higher = weaker reporter binding
# setupConditions: input ligand: none
Recorded apparent KD of MS2 coat protein for the following sequences
Express it in nM; write the number only.

Examples with answers:
sequenceRecord | numericResult
GUCACAUGGACAUAGGAUCACAUGAGGAUCACCCAUGUGACUAACAAGCUUUUUGCUCGUCUUAUGUCUAUGUGAAA [Stov1/16-A1] (Eterna round: R97, puzzle: Sensor, turn-off variant 1) | 12
AUAAUACAUGAGGAUCACCCAUGUGAGGAUAUACGACUCCAACCUAACAGCUUGGACCGUAGAAGGCACAAGGG [Exclusion 1 (MOD1.2 Esqu)] (Eterna round: R97, puzzle: Exclusion 1) | 261
UAUUAGCAAGCAAGAUCCUACAUGAGGAUCACCCAUGUGCUCGUCUUAAACGCAGAAUUACUGCGAGCUCGUCUUAU [Winner reversed engineered 25] (Eterna round: R97, puzzle: Sensor, turn-off variant 1) | 849
UGAUCACAUGAGGAUCACCCAUGUCAGGAUAUCUACAUUGAAGCCUCGGCUUCAAUGUAGAGAAGGGAUAUAAU [E1/5-B2] (Eterna round: R97, puzzle: Exclusion 1) | 86.8
CCGUGCACGCUGCGGUCCUACAUGAGGAUCACCCAUGUGGUCUGGUGGCGUGGGUCGCCGGACUUGGCUCGUCUUGU [salish99_S_TOV1_R5_020] (Eterna round: R97, puzzle: Sensor, turn-off variant 1) | 20.5

Give apparent KD of MS2 coat protein for the following sequence: CUGUGCACGCUGCGGUCCUACAUGAGGAUCACCCAUGUGGUCUGGUGGCGUGGGUCGCCGGACUUGGCUCGUCUUGG [salish99_S_TOV1_R5_025] (Eterna round: R97, puzzle: Sensor, turn-off variant 1)
15.9
